FYI, the data here is from the supplement of paper PMC13380429.

- Tested on: U2OS
- Test Description: cell viability relative to DMSO; higher = less toxic
- Measurement Parameters: 72 h; 1 nM
Reported Metric: cell viability (%)

>>> assay_result("COc1ccc(C(=O)CC2(O)C(=O)Nc3c(Cl)ccc(Cl)c32)cc1 (stereo not given) [YK-4-279]")
104
>>> assay_result("CNCC(O)c1ccc(OC(=O)C(C)(C)C)c(OC(=O)C(C)(C)C)c1 (stereo not given) [dipivefrine]")
99.4
>>> assay_result("Cc1ccc(S(N)(=O)=O)cc1 [para-toluenesulfonamide]")
100
>>> assay_result("S=C(NCc1ccc2c(c1)OCO2)N1CCN(c2ncnc3c2oc2ccccc23)CC1 [amuvatinib]")
104
>>> assay_result("O=C(N/N=C/c1ccc(O)c(O)c1)c1cc2ccccc2cc1O [dynasore]")
95.9
>>> assay_result("O=C(O)P(=O)(O)O [foscarnet]")
104
>>> assay_result("O=S(=O)(c1ccccc1)c1cnc2c(N3CCNCC3)cccc2c1")
102
>>> assay_result("CCCC[C@@]1(C2CCCC2)Cc2cc(OCCCC(=O)O)c(Cl)c(Cl)c2C1=O [DCPIB]")
95.7
>>> assay_result("CN(CCOc1ccc(NS(C)(=O)=O)cc1)CCc1ccc(NS(C)(=O)=O)cc1 [dofetilide]")
100
>>> assay_result("NC(=O)N1c2ccccc2C=Cc2ccccc21 [carbamazepine]")
101
